- tested-target: ERG isolated Ets domain (ERGu, 289-378) (Homo sapiens, UniProt P11308)
- Sequence (P11308 289-378 isoform P11308-1): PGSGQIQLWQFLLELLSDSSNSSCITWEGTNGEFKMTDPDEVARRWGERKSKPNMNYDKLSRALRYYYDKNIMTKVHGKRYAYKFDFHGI
- assay-name: Fluorescence polarization DNA binding assay, uninhibited ERG
- conditions: FP DNA binding, NA = no activity up to 2000 μM, >number = estimate from fit with lower bound
Recorded IC50 for the following molecules

>>> experimental_result("COc1cccc2cc(C(C)=O)oc12 [Compound 9F1]")
"> 2000 µM"

What value of IC50 on ERG isolated Ets domain (ERGu, 289-378) (Homo sapiens, UniProt P11308) does COc1cc(OCC(=O)Nc2cccc(O)c2)ccc1C [KK-22-93] have?
> 3000 µM

Form: Entry = COc1ccc(-c2c(C(C)=O)oc3c(OC)cccc23)cc1 [KK-16-69] | System = ERG isolated Ets domain (ERGu, 289-378) (Homo sapiens, UniProt P11308) | IC50 = ____
> 2000 µM

What IC50 appears in the records for this molecule with ERG isolated Ets domain (ERGu, 289-378) (Homo sapiens, UniProt P11308)? Cc1ccc(OCC(=O)Nc2cccc(O)c2)cc1 [Compound 6H6]
> 2000 µM

Form: Entry = CCNc1cc(-c2nc3ccccc3o2)ccc1C [KK-23-07] | System = ERG isolated Ets domain (ERGu, 289-378) (Homo sapiens, UniProt P11308) | IC50 = ____
> 2000 µM

# get_value(readout= IC50, system= ERG isolated Ets domain (ERGu, 289-378) (Homo sapiens, UniProt P11308)) for Nc1ccc(Cl)c(-c2nc3ccccc3o2)c1 [Compound 9B5]
> 2000 µM

----------
- tested-target: Spi1 (PU.1) (Homo sapiens, UniProt P17947)
property-label: IC50

// map Cc1ccc(OCC(=O)Nc2cccc(O)c2)cc1 to recorded IC50 (system: Spi1 (PU.1) (Homo sapiens, UniProt P17947))
> 2000 µM

----------
As shown below, each of these compounds has a reported pIC50 value.
Sequence of the target: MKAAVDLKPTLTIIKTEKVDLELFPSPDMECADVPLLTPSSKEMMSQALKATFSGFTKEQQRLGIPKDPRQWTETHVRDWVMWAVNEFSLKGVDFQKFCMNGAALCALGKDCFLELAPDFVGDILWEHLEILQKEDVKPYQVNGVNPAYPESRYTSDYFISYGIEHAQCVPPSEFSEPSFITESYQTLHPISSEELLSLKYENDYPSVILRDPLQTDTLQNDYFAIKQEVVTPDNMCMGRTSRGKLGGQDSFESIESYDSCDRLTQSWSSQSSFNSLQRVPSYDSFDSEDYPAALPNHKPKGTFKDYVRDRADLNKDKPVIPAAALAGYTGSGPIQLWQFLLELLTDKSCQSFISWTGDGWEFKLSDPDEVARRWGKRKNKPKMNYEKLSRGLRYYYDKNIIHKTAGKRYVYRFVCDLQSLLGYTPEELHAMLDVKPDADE
pIC50: −log10 of the molar value.

Some solved cases for reference:
>>> experimental_result("COc1cccc2cc(C(C)=O)oc12")
"< 2.70"
>>> experimental_result("COc1cc(OCC(=O)Nc2cccc(O)c2)ccc1C")
"< 2.44"

// moving on: another record for pIC50
What does the data say about its pIC50? Entry: CCNc1cc(-c2nc3ccccc3o2)ccc1C
< 2.59

Attribution: patent US20250361227A1
